target: human cloned CHRM4 receptor (M4_CHO cells) (Homo sapiens); construct: expressed in transfected cells; host or cells: CHO-K1; test: CHRM4 Ca++ Flux Assay (agonist mode, FDSS 7000EX); format: cell-based; details: geometric mean if tested more than once, read-out: M4 FDSS EC50
As shown below, each of these compounds has a reported EC50 value.
Reply numerically in nM, unit not repeated.

Observe how each entry below is paired with its result.
Compound | Reported metric | Unit spec | Result
c1ccc(C2CCN([C@@H]3CCC4(C3)CN(c3nnco3)C4)CC2)c(OC[C@@H]2COCCO2)c1 | EC50 | nM | 1
O=C(N1CC2(CC[C@@H](N3CCC(c4ccccc4OC4CCOCC4)CC3)C2)C1)C1(F)CC1 (single isomer, unassigned) [Example 9F] | EC50 | nM | 156
COCCOc1ccccc1C1CCN([C@@H]2CCC3(C2)CN(c2nncs2)C3)CC1 | EC50 | nM | 6

Value of EC50 reported for the compound "COc1ccccc1C1CCN([C@@H]2CCC3(C2)CN(c2cncc(F)c2)C3)CC1" is 6

Measured EC50 of "COc1ccc(F)cc1C1CCN([C@@H]2CCC3(C2)CN(C(=O)C2COC2)C3)CC1" : 1

----------
molecular target: human cloned CHRM5 receptor (M5_CHO) (Homo sapiens, UniProt P08912); construct: expressed in transfected cells; host or cells: CHO (M5_CHO); test: CHRM5 Ca++ Flux Assay (agonist mode, FDSS 7000EX); assay type: cell-based; conditions: agonist mode; geometric mean if tested more than once; read-out: M5 FDSS EC50
Sequence (P08912 whole entry): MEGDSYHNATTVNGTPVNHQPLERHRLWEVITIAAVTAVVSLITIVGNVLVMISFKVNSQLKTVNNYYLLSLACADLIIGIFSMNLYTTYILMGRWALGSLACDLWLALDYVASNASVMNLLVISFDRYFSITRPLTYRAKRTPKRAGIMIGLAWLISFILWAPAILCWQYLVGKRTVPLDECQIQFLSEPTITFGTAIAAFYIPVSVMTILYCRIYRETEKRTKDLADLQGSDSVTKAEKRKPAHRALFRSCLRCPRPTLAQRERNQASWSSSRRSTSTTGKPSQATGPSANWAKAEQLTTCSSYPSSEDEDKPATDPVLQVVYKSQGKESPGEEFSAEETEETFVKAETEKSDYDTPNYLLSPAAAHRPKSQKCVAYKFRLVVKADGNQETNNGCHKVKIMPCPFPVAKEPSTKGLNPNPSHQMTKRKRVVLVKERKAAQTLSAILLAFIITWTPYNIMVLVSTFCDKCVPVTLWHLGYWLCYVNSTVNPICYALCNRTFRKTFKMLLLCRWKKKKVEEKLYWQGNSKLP
Reported metric: EC50

Would you please look over these solved cases?
Compound | EC50
COc1ccccc1C1CCN([C@@H]2CCC3(C2)CN(c2nccnc2C(F)(F)F)C3)CC1 [Example 5I] | > 25 µM
COc1ccc(Cl)cc1C1CCN([C@@H]2CCC3(C2)CN(c2ccnnc2)C3)CC1 [Example 5P] | 13.4 µM
FC(F)Oc1ccccc1C1CCN([C@@H]2CCC3(C2)CN(c2nncs2)C3)CC1 (single isomer, unassigned) [Example 10O] | > 25 µM

// switching to the query compound
Recorded result, Fc1cncc(N2CC3(CC[C@@H](N4CCC(c5cc(F)ccc5OC5CCOCC5)CC4)C3)C2)c1 (single isomer, unassigned) [Example 10A] , EC50: > 25 µM

----------
Measured Emax accompanies every entry in the list below.
biological target: Cloned human M1 receptor (CHRM1) stably expressed in HEK293 cells (Homo sapiens, UniProt P11229); construct: expressed in transfected cells; host or cells: HEK293; assay: CHRM1 Ca++ Flux Assay (agonist mode, FDSS 7000EX); assay type: cell-based; conditions: HEK293, Percent Activity, read-out: M1 FDSS PA
Sequence (P11229 whole entry): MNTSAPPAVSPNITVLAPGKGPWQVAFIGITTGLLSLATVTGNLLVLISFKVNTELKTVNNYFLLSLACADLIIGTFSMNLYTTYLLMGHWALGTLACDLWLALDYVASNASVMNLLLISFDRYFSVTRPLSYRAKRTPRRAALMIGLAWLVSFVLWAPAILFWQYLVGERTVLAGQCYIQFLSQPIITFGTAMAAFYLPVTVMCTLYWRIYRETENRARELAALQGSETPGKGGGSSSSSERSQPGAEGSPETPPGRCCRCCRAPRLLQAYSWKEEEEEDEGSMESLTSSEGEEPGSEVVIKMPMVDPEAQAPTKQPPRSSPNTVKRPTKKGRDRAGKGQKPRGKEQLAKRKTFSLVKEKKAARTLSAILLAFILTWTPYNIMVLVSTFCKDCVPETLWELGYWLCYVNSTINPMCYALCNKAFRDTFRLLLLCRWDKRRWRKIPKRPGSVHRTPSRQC
# value in %; strip the unit string

Before answering, review these 3 worked examples.
Sample smiles | Emax (%)
CC(C)(O)CCOc1ccccc1C1CCN([C@@H]2CCC3(C2)CN(c2nncs2)C3)CC1 | 84
c1ccc(C2CCN([C@@H]3CCC4(C3)CN(c3nnco3)C4)CC2)c(OC2CC3(COC3)C2)c1 | 63
COCCOc1ccccc1C1CCN([C@@H]2CCC3(C2)CN(c2cccnn2)C3)CC1 | 0

So for "COc1ccccc1C1CCN([C@@H]2CCC3(C2)CN(c2cnc(C)cn2)C3)CC1" , the logged Emax turned out to be 0

Field Emax (entry "O=C(C1COC1)N1CC2(CC[C@@H](N3CCC(c4ccccc4OCC(F)F)CC3)C2)C1" ) reads 87

Emax reading for "COc1ccccc1C1CCN([C@@H]2CCC3(C2)CN(c2ccnnc2)C3)CC1" : 45

Measured Emax of "COc1ccccc1C1CCN([C@@H]2CCC3(C2)CN(c2cncc(F)c2)C3)CC1" : 7

The compound listed as "FC1(COc2ccccc2C2CCN([C@@H]3CCC4(C3)CN(c3nnco3)C4)CC2)CCOCC1" shows Emax equal to 82

----------
Biological target: human cloned CHRM4 receptor (M4_CHO cells) (Homo sapiens, UniProt P08173)
Construct: expressed in transfected cells; host or cells: CHO-K1
Sequence (P08173 1-479): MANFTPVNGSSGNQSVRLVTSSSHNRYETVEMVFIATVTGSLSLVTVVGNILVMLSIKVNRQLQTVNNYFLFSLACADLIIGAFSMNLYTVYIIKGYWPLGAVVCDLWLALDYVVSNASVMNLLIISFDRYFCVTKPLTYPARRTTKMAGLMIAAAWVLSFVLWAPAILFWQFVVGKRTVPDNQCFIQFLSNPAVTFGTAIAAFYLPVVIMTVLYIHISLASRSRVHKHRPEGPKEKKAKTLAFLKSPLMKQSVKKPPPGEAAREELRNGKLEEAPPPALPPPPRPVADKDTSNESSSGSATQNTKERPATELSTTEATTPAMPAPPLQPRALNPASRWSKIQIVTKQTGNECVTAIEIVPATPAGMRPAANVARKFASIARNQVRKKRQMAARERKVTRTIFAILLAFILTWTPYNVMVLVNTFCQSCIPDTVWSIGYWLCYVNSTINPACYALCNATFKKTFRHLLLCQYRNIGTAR
Experiment: CHRM4 Ca++ Flux Assay (agonist mode, FDSS 7000EX)
Format: cell-based
Conditions: geometric mean if tested more than once, read-out: M4 FDSS EC50
Form field: EC50 (one value per entry).
Response body: numeric value in nM, unit text excluded.

Study these solved cases before continuing.
Compound | Target | Result
c1ccc(C2CCN([C@@H]3CCC4(C3)CN(c3nncs3)C4)CC2)c(OCC2COC2)c1 | human cloned CHRM4 receptor (M4_CHO cells) (Homo sapiens, UniProt P08173) | 1
Fc1cncc(N2CC3(CC[C@@H](N4CCC(c5ccccc5C5CCOCC5)CC4)C3)C2)c1 | human cloned CHRM4 receptor (M4_CHO cells) (Homo sapiens, UniProt P08173) | 10

Recorded result, O=C(N1CC2(CC[C@@H](N3CCC(c4ccccc4OC(F)(F)F)CC3)C2)C1)C1(F)CC1 (single isomer, unassigned) [Example 9A] , EC50: 342

----------
biological target: human cloned CHRM4 receptor (M4_CHO cells) (Homo sapiens, UniProt P08173); construct: expressed in transfected cells; host or cells: CHO-K1; assay: CHRM4 Ca++ Flux Assay (agonist mode, FDSS 7000EX); type: cell-based; conditions: Percent Activity, read-out: M4 FDSS PA
Measured Emax of individual entries
Field: numeric (%). Do not append units.

Example cases with answers are listed next.
Sample smiles | Unit spec | Emax
COc1ccccc1C1CCN([C@@H]2CCC3(C2)CN(c2cccnn2)C3)CC1 | % | 39
Cc1nccnc1N1CC2(CC[C@@H](N3CCC(c4ccccc4OCC(C)(C)O)CC3)C2)C1 | % | 25
COCCOc1ccccc1C1CCN([C@@H]2CCC3(C2)CN(c2cccnn2)C3)CC1 | % | 24

Now for the compound whose Emax we want.
Record "COC(C)(C)COc1ccccc1C1CCN([C@@H]2CCC3(C2)CN(C(=O)C2COC2)C3)CC1" , field Emax: 50

----------
molecular target: human cloned CHRM2 receptor (M2_CHO cells) (Homo sapiens); construct: expressed in transfected cells; host or cells: CHO-K1; assay: CHRM2 Ca++ Flux Assay (agonist mode, FDSS 7000EX); type: cell-based; details: agonist mode; geometric mean if tested more than once; read-out: M2 FDSS EC50
Sequence (P08172 whole entry): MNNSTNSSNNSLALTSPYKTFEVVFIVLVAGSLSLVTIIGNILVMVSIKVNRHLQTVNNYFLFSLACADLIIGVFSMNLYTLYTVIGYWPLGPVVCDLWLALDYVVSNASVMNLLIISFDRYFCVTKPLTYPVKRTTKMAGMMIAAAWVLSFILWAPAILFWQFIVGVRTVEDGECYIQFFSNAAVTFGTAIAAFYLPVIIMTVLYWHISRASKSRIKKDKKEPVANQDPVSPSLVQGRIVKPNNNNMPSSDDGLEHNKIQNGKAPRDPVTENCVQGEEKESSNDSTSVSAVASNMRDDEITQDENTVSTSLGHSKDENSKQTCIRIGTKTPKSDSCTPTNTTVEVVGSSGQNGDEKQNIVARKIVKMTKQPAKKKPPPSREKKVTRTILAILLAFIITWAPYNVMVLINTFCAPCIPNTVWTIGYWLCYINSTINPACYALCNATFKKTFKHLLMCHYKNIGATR
Reported metric: pEC50
# reply with the number alone; pEC50 is -log10 of concentration in mol/L

Compound | Result
c1ccc(C2CCN([C@@H]3CCC4(C3)CN(c3nncs3)C4)CC2)c(OC[C@@H]2COCCO2)c1 [Example 3C] | 7.62
FC1(COc2ccccc2C2CCN([C@@H]3CCC4(C3)CN(c3nncs3)C4)CC2)CCOCC1 [Example 1J] | 7.29
c1ccc(C2CCN([C@@H]3CCC4(C3)CN(c3cncnc3)C4)CC2)c(OC2CCOCC2)c1 [Example 1L] | 6.67
FC1(COc2ccccc2C2CCN([C@@H]3CCC4(C3)CN(c3nnco3)C4)CC2)CCOCC1 [Example 2D] | 7.30

Reading of pEC50 for Fc1ccc(C2CCOC2)c(C2CCN([C@@H]3CCC4(C3)CN(c3nnco3)C4)CC2)c1 (mixture of isomers) [Example 2J] with human cloned CHRM2 receptor (M2_CHO cells) (Homo sapiens): 7.44

pEC50 on human cloned CHRM2 receptor (M2_CHO cells) (Homo sapiens) for O=C(C1COC1)N1CC2(CC[C@@H](N3CCC(c4ccccc4OC[C@@H]4CCOC4)CC3)C2)C1 [Example 7E] is 6.85

For O=C(C1COC1)N1CC2(CC[C@@H](N3CCC(c4ccccc4OC(F)(F)F)CC3)C2)C1 [Example 12A] on human cloned CHRM2 receptor (M2_CHO cells) (Homo sapiens), measured pEC50 was 3.96

----------
# pEC50 annotations
molecular target: Cloned human M1 receptor (CHRM1) stably expressed in HEK293 cells (Homo sapiens, UniProt P11229); assay: CHRM1 Ca++ Flux Assay (agonist mode, FDSS 7000EX); settings: geometric mean if tested more than once
pEC50: −log10 of the molar value.

// solved cases for pEC50 follow
Molecule | pEC50
O=C(N1CC2(CC[C@@H](N3CCC(c4ccccc4OC4CCOCC4)CC3)C2)C1)C1(F)CC1 (single isomer, unassigned) [Example 9F] | < 4.60
FC(F)(F)Oc1ccccc1C1CCN([C@@H]2CCC3(C2)CN(c2nncs2)C3)CC1 (single isomer, unassigned) [Example 10N] | < 4.60
c1ccc(C2CCN([C@@H]3CCC4(C3)CN(c3ncncn3)C4)CC2)c(OCC2CCOCC2)c1 | < 4.60

# ---- query molecule ----
The reported value for "O=C(C1COC1)N1CC2(CC[C@@H](N3CCC(c4ccccc4OC4CCC4)CC3)C2)C1" in terms of pEC50 is 8.05
